Cited source: ChEMBL document CHEMBL1144487

experiment summary: Differential index, LC50 for rat NRK 52E cells to LC50 for rat H-ras transformed NRK H/1.2 cells
Type: ADME, cell-based
run parameters: NRK 52E cells versus H-ras transformed NRK H/1.2 cells
property measured: selectivity ratio
Answer with a bare number; do not write a unit.

// selectivity ratio lookup, molecule = CCCCOC(=O)c1cc2c([nH]c3ccc(F)cc32)c(-c2ccc3c(n2)C(=O)C(NC(C)=O)=CC3=O)n1 , result: 0.9

// selectivity ratio lookup, molecule = CCCCOC(=O)c1cc2c([nH]c3ccc(OC)cc32)c(-c2ccc3c(n2)C(=O)C(NC(C)=O)=CC3=O)n1 , result: 1.2

// selectivity ratio lookup, molecule = CCCC(=O)NC1=CC(=O)c2ccc(-c3nc(C(=O)OC)cc4c3[nH]c3ccccc34)nc2C1=O , result: 1.1

// selectivity ratio lookup, molecule = NC1=CC(=O)c2ccc(-c3[nH]ccc4c5ccccc5nc3-4)nc2C1=O , result: 0.9

// selectivity ratio lookup, molecule = COC(=O)c1cc2c([nH]c3ccccc32)c(-c2ccc3c(n2)C(=O)C(NC(C)=O)=CC3=O)n1 , result: 1

// selectivity ratio lookup, molecule = CCCCOC(=O)c1cc2c([nH]c3ccccc32)c(-c2ccc3c(n2)C(=O)C(NC(=O)CCl)=CC3=O)n1 , result: 1.3

// selectivity ratio lookup, molecule = CC(=O)NC1=CC(=O)c2ccc(-c3nc(C(=O)OC4CCCCC4)cc4c3[nH]c3ccccc34)nc2C1=O , result: 1

// selectivity ratio lookup, molecule = CC(=O)NC1=CC(=O)c2ccc(-c3nc(C(=O)OCCN(C)C)c(C)c4c3[nH]c3ccccc34)nc2C1=O , result: 1

// selectivity ratio lookup, molecule = CC(=O)NC1=CC(=O)c2ccc(-c3nc(C(=O)OCCN(C)C)cc4c3[nH]c3ccccc34)nc2C1=O , result: 1.5

// selectivity ratio lookup, molecule = CC(=O)NC1=CC(=O)c2ccc(-c3nc(C(=O)OCCC(C)C)c(C)c4c3[nH]c3ccccc34)nc2C1=O , result: 1.1

// selectivity ratio lookup, molecule = CC(=O)NC1=CC(=O)c2ccc(-c3[nH]ccc4c5ccccc5nc3-4)nc2C1=O , result: 1
